- test.system: MsCS (citrate synthase from Metallosphaera sedula) (Metallosphaera sedula, UniProt A4YGX6)
- Construct: C-terminal 6xHis tag (pET-30a, NdeI/XhoI), E. coli BL21(DE3)-T1R; homodimer about 85 kDa; modelled domains Met1-Arg370; His214, His253, Asp307 catalytic
- Sequence (A4YGX6 entry or part of it): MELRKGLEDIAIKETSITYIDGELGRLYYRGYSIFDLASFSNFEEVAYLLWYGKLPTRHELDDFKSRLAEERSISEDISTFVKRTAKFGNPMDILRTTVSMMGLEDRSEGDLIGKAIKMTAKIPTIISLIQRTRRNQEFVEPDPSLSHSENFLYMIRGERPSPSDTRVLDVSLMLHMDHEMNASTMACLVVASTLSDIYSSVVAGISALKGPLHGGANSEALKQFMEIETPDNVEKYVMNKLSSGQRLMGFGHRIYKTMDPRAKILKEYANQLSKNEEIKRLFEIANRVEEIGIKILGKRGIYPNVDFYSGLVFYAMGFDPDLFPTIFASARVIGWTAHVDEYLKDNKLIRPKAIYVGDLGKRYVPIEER
- assay.overview: DTNB absorbance at […] nm, inhibition kinetics
# reported pKi; entries follow
In simple prose, pKi is minus the logarithm base ten of a concentration in moles per litre.

| structure.smiles | test.value |
| --- | --- |
| Nc1ncnc2c1ncn2[C@@H]1O[C@H](COP(=O)(O)OP(=O)(O)OP(=O)(O)O)[C@@H](O)[C@H]1O | 2.36 |

Next up:
Notebook: NC(=O)C1=CN([C@@H]2O[C@H](COP(=O)(O)OP(=O)(O)OC[C@H]3O[C@@H](n4cnc5c(N)ncnc54)[C@H](O)[C@@H]3O)[C@@H](O)[C@H]2O)C=CC1 , pKi read as 2.36
